assay: Pharmacokinetics and colon distribution in rats; format: in vivo, male Wistar rats; conditions: male, Wistar, plasma; Rat, 0.25 mg/kg intravenous
REPORTED_METRIC: AUC(0-inf) (ng·h/mL)

[[record]]
compound = "C#Cc1cc(Nc2nccc(Oc3ccc(NC(=O)Nc4cc(C(C)(C)C)nn4-c4ccc(C)cc4)c4ccccc34)n2)cc(C(=O)NCCOCCOCCOC)c1 [Example 2]"
units_of_measure = "ng·h/mL"
experimental_value = 691


====

test system: Naïve CD4+ T cells; assay: (g) T cell proliferation; type: cell-based; settings: Homo sapiens, assay (g), read-out: IC50 for inhibition of T cell proliferation
pIC50: −log10 of the molar value.
REPORTED_METRIC: pIC50

[[record]]
given_smiles = "C#Cc1cc(Nc2nccc(Oc3ccc(NC(=O)Nc4cc(C(C)(C)C)nn4-c4ccc(C)cc4)c4ccccc34)n2)cc(C(=O)NCCOCCOCCOC)c1"
reported_metric = "pIC50"
experimental_value = 8.57


====

experiment: Hepatic microsomal stability, dog; format: in vitro ADME; details: pooled liver microsomes, read-out: Mean intrinsic clearance
REPORTED_METRIC: microsomal CLint at 0.1 μM

[[record]]
given_smiles = "C#Cc1cc(Nc2nccc(Oc3ccc(NC(=O)Nc4cc(C(C)(C)C)nn4-c4ccc(C)cc4)c4ccccc34)n2)cc(C(=O)NCCOCCOCCOC)c1"
reported_metric = "microsomal CLint at 0.1 μM"
experimental_value = "> 554 µL/min/mg"


====

System: primary macrophages
Experiment: (e) LPS-induced cytokine release in primary macrophages
Type: cell-based
Conditions: Homo sapiens, Primary macrophage, assay (e), read-out: IC50 for inhibition of release of IL-8
Experimental: PBMCs from healthy subjects are separated from whole blood using a density gradient (Lymphoprep, Axis-Shield Healthcare). Cells are incubated for 2 hrs and non-adherent cells removed by washing. To differentiate the cells to macrophages the cells are incubated with 5 ng/ml of GM-CSF (Peprotech) for 7 days under normal tissue culture conditions. […] The IC50 is determined from the dose response curve.
REPORTED_METRIC: IC50 (nM)

[[record]]
given_smiles = "C#Cc1cc(Nc2nccc(Oc3ccc(NC(=O)Nc4cc(C(C)(C)C)nn4-c4ccc(C)cc4)c4ccccc34)n2)cc(C(=O)NCCOCCOCCOC)c1"
reported_metric = "IC50"
experimental_value = 2.1


====

assay: Pharmacokinetics and colon distribution in rats; format: in vivo, male Wistar rats; details: male, Wistar, po; Rat, 5 mg/kg p.o., Total colon
REPORTED_METRIC: AUC(0-t) (ng·h/mL)

[[record]]
given_smiles = "C#Cc1cc(Nc2nccc(Oc3ccc(NC(=O)Nc4cc(C(C)(C)C)nn4-c4ccc(C)cc4)c4ccccc34)n2)cc(C(=O)NCCOCCOCCOC)c1"
reported_metric = "AUC(0-t)"
experimental_value = 15500


====

tested on: PBMCs; assay: (b) LPS-induced TNFα/IL-8 release in PBMC cells; type: cell-based; conditions: Homo sapiens, read-out: IC50 for Inhibition of Cytokine Release, IL-8
REPORTED_METRIC: IC50 (nM)

[[record]]
given_smiles = "COCCOCCOCCNC(=O)c1cc(Nc2cc(Oc3ccc(NC(=O)Nc4cc(C(C)(C)C)nn4-c4ccc(N(C)C)cc4)c4ccccc34)ccn2)cc(OC)c1"
reported_metric = "IC50"
experimental_value = 3.3

[[record]]
given_smiles = "COCCOCCOCCNC(=O)c1cc(Nc2nccc(Oc3ccc(NC(=O)Nc4cc(C(C)(C)C)nn4-c4ccc(N(C)C)cc4)c4ccccc34)n2)cc(OC)c1"
reported_metric = "IC50"
experimental_value = 2.7

[[record]]
given_smiles = "C#Cc1cc(Nc2nccc(Oc3ccc(NC(=O)Nc4cc(C(C)(C)C)nn4-c4ccc(OC)cc4OC)c4ccccc34)n2)cc(C(=O)NCCOCCOCCOC)c1"
reported_metric = "IC50"
experimental_value = 4.6

[[record]]
given_smiles = "C#Cc1cc(Nc2nccc(Oc3ccc(NC(=O)Nc4cc(C(C)(C)C)nn4-c4ccc(C)cc4)c4ccccc34)n2)cc(C(=O)NCCOCCOCCOCCOC)c1"
reported_metric = "IC50"
experimental_value = 2.4

[[record]]
given_smiles = "C#Cc1cc(Nc2nccc(Oc3ccc(NC(=O)Nc4cc(C(C)(C)C)nn4-c4ccc(OC)cc4)c4ccccc34)n2)cc(C(=O)NCCOCCOCCOC)c1"
reported_metric = "IC50"
experimental_value = 1.2

